# System: UO-31
# METHOD SUMMARY: Growth inhibition of human UO-31 cells assessed as cell growth at 1 uM incubated for 48 hrs by sulforhodamine B assay relative to control
# Assay type: functional
# TEST CONTEXT: read-out: Activity
OBSERVED PROPERTY: growth at 1 µM (%)
Write the number in % without appending the unit.

* Cc1ccc(NC(=O)c2sc3nc4c(cc3c2N)C(=O)CCC4)cc1C | 42
* COc1cccc(NC(=O)c2sc3nc4c(cc3c2N)CN(Cc2ccccc2)CC4)c1 | 77

--- query ---
Lookup: State recorded growth at 1 µM with UO-31, entry CCc1ccccc1NC(=O)c1sc2nc3c(cc2c1N)C(=O)CCC3 , no comment.
Found: 50
